The reported measurements were obtained from PubChem BioAssay (NCI).

Test system: SNB-19 CNS
assay-method-text: NCI tumour cell line growth inhibition, 48 h
Measured TGI, listed per entry.

So what does the record say about TGI for "CC1=NOC(=O)/C1=C/c1ccccc1O" ?
> 100 µM

So what does the record say about TGI for COc1cccc(NC(=O)CC(=O)N2N=C(N(CCC#N)c3ccc(Cl)cc3)CC2c2ccccc2)c1 (stereo unspecified) ?
> 100 µM

So what does the record say about TGI for "N#C/C(=C1\OC(=O)C(c2ccc(Br)cc2)=C1O)c1ccc(Br)cc1" ?
27.5 µM

So what does the record say about TGI for "CNC(=O)n1ccc2cc(Oc3ccnc(NC(=O)c4ccc(C5CCN(CCO)CC5)cc4)c3)c(OCCOC)cc21" ?
21.5 µM

So what does the record say about TGI for "CCCC[C@H](NC(=O)[C@H]1CCCN1C)C(=O)N(C)[C@H](C[C@@H](OC(C)=O)c1nc(C(=O)N[C@@H](Cc2ccccc2)C[C@H](C)C(=O)OCC)cs1)C(C)C" ?
> 33.3 µM
